The reported numbers originate from a melting point compilation (Tetko et al.).

Measured endpoint: melting point

Quick one: melting point for CC(=O)Nc1cnc(NC(C)=O)s1 ? 245 to 247 °C

Note, next up: O=C(c1cccnc1)c1cc2ccccc2o1 106 to 108 °C

Note, next up: Cc1cc(C(=O)O)ncn1 129 to 131 °C

Further cases:
Quick one: melting point for O=C(O)CNC(=O)c1cccc(O)c1 ? 174 to 176 °C

Note, next up: N#Cc1cccnc1Oc1ccccc1N 171 to 173 °C

Note, next up: NC(C(=O)O)(c1cccc(C(F)(F)F)c1)C(F)(F)F (configuration not stated) 119 to 121 °C

Note, next up: Clc1cc(Cl)cc(OCC2CCNCC2)c1 59 to 61 °C

Note, next up: ON=C(C(=NO)c1ccccc1)c1ccccc1 245 to 246 °C

----------
Measured endpoint: melting point

Please review the entries below; each comes with its answer.
Quick one: melting point for Nc1ccc(CN2CCC(CO)CC2)cc1 ? 165 to 167 °C

Note, next up: CC(CC(=O)O)NC(=O)OC(C)(C)C (stereo unspecified) 94 to 96 °C

Note, next up: Cc1nn(C)c(C)c1NC(=O)CCl 107 to 109 °C

Further cases:
Quick one: melting point for Nc1nc2c(F)cc(F)cc2s1 ? 197 to 199 °C

Note, next up: CCS(=O)(=O)c1ccc(F)c(C(=O)O)c1 129 to 131 °C

Note, next up: COc1cc(C)ccc1C(=O)CBr 77 to 79 °C

Note, next up: N#Cc1ccc(O)c(N)c1 149 to 151 °C

Note, next up: COc1cc(N)cc(OC)c1Br 149 to 151 °C

Note, next up: COc1ccc(C(C)(C)O)c(OCc2ccccc2)c1 47 to 49 °C

Note, next up: COc1ccc(C(=O)CBr)cc1Cl 99 to 101 °C

Note, next up: O=C(O)c1ccc(-n2cnnn2)cc1 220 to 230 °C

Note, next up: Sc1nnnn1Cc1ccco1 78 to 80 °C

Note, next up: O=C(CCl)c1cc(Cl)sc1Cl 43 to 45 °C

Note, next up: Nc1nc(-c2ccc3c(c2)OCCO3)cs1 180 to 182 °C

Note, next up: Cc1cc(N)ccc1-n1cnnn1 135 to 137 °C

Note, next up: COCCNc1ccc(C#N)cc1 66 to 68 °C

----------
Entries and their melting point

Please review the entries below; each comes with its answer.
Quick one: melting point for Cc1cc(F)ccc1-n1cc(C(=O)O)nn1 ? 129 to 131 °C

Note, next up: Cc1ccc(-c2nn(-c3ccccc3)cc2C(=O)O)cc1 229 to 231 °C

Note, next up: NS(=O)(=O)c1ccc(Cl)c(C(=O)O)c1 219 to 221 °C

Note, next up: CC(NC(=O)CCl)C(=O)O (stereo not given) 125 to 127 °C

Further cases:
Quick one: melting point for O=C(O)c1ccc2c(c1Cl)C(=O)c1ccccc1C2=O ? 199 to 201 °C

Note, next up: O=C(O)c1oc2ccccc2c1CSC1CCCCC1 158 to 160 °C

Note, next up: Cc1c(C(=O)O)oc2c1ccc1ccccc12 206 to 208 °C

Note, next up: N#Cc1ccc(C=O)c(F)c1 79 to 81 °C

Note, next up: Nc1cc(-c2ccccc2)ns1 159 to 161 °C

Note, next up: NC(=O)c1cnc(Cl)cn1 166 to 168 °C

Note, next up: Nc1ccccc1CSc1ccc(C(F)(F)F)cn1 74 to 76 °C

Note, next up: CCC(C)(C)NS(=O)(=O)c1ccc(Cl)nc1 86 to 88 °C

Note, next up: O=C1C(Br)CCCN1c1ccccc1F (stereo not given) 54 to 56 °C

Note, next up: Clc1ncnc2c1CCC2 39 to 41 °C

Note, next up: O=C(O)C=CC(=O)NCc1ccncc1 139 to 141 °C

----------
Entries and their melting point

Please review the entries below; each comes with its answer.
Quick one: melting point for ClCc1nc2ncc(Br)cc2[nH]1 ? 209 to 211 °C

Note, next up: COC(=O)c1ccc(F)cc1N 62 to 64 °C

Note, next up: Cc1c(Cl)ccc2ccc(N)nc12 134 to 136 °C

Note, next up: O=C(O)c1cc(-c2ccc(Cl)s2)on1 169 to 171 °C

Note, next up: Nc1ccc(Oc2ccc(Cl)cn2)cc1 70 to 72 °C

Note, next up: CCOc1ccc(C=C(C(=O)O)c2cccs2)cc1 133 to 135 °C

Further cases:
Quick one: melting point for NCc1cc(OCC(F)F)ccn1 ? 71 to 73 °C

Note, next up: Cn1nnnc1-c1cccc(S(=O)(=O)Cl)c1 86 to 88 °C

Note, next up: Cc1occc1C(=O)Nc1cc(N)ccc1F 130 to 132 °C

Note, next up: BrCc1cccc2ccccc12 49 to 51 °C

Note, next up: C=CC(=O)Nc1ccc(OC)c(OC)c1 102 to 104 °C

Note, next up: Cc1ccc(S(=O)(=O)Oc2ncnc3c(F)cc(Br)cc23)cc1 204 to 206 °C

Note, next up: Cn1c(=O)oc2cc(N)ccc21 150 to 152 °C

Note, next up: Cc1c(C(=O)O)sc2ccsc12 235 to 237 °C

Note, next up: COC(=O)c1ccc(O)nc1C 222 to 224 °C

Note, next up: CC1C(=O)NC(=O)C1C (stereo unspecified) 56 to 58 °C

Note, next up: Cc1[nH]ccc1C(=O)O 167 to 169 °C

Note, next up: CC(=O)c1ccc2c(c1)C(C)(C)C(=O)N2 187 to 189 °C

Note, next up: O=C1CCC(=O)N(c2ccc(C(=O)O)cc2)N1 248 to 250 °C

Note, next up: Cc1cc(Br)cc2c1NC(=O)C2 224 to 226 °C

Note, next up: Cn1c(=O)n(C)c2cc(S(=O)(=O)Cl)ccc21 176 to 178 °C

Note, next up: O=C(O)Cc1cccc2cccnc12 130 to 132 °C

----------
Measured endpoint: melting point

Please review the entries below; each comes with its answer.
Quick one: melting point for N#CCc1cccc2cccnc12 ? 84 to 86 °C

Note, next up: Fc1cc2nc(CCl)[nH]c2cc1F 150 to 152 °C

Now look at this entry.
Quick one: melting point for NNc1nccc(N2CCOCC2)n1 ? 146 to 148 °C

----------
Measured endpoint: melting point

Quick one: melting point for CC(Cl)C(=O)Nc1cccc(S(=O)(=O)N(C)C)c1 (stereo not drawn) ? 163 to 167 °C

Note, next up: CCCCCCNC(=O)CCl 29 to 31 °C

Note, next up: Cc1cc(C)cc(C2(C(=O)O)CCC2)c1 132 to 134 °C

Note, next up: Nc1c(Br)c(=O)[nH]c(=O)n1Cc1ccccc1 235 to 237 °C

Note, next up: Cc1ccc(NC(=O)C(Cl)c2ccccc2)cc1 (stereo not drawn) 143 to 147 °C

Note, next up: O=C1CCCCC(N2C(=O)c3ccccc3C2=O)C1 (stereo not drawn) 119 to 121 °C

Note, next up: Cc1cccc(NC2CCNCC2)n1 85 to 87 °C

Note, next up: CC(C)(C)OC(=O)N1CCN(CCN)CC1 34 to 36 °C

Note, next up: CSCc1cc(C(=O)O)ccc1F 119 to 121 °C

Note, next up: Cc1ccc(C(N)=S)o1 149 to 151 °C

Now look at this entry.
Quick one: melting point for CC(C)(C)NS(=O)(=O)c1cc(N)ccc1F ? 138 to 140 °C

----------
Measured endpoint: melting point

Quick one: melting point for O=C(CCCl)N1CCOCC1 ? 46 to 48 °C

Further cases:
Quick one: melting point for CC(C)(C)OC(=O)C1CCN(C(=O)OCc2ccccc2)CC1 ? 56 to 58 °C

Note, next up: NNC(=O)CN1CCCc2ccccc21 107 to 109 °C

Note, next up: CCc1sc(=O)[nH]c1-c1ccccc1 136 to 138 °C

Note, next up: O=C(O)c1cc(-c2ccccc2)ccc1Cl 199 to 201 °C

Note, next up: CCC(CC)(C(=O)O)c1ccc(Cl)c(Cl)c1 94 to 96 °C

Note, next up: O=C1OCCc2cnc3ccnn3c21 213 to 215 °C

Note, next up: Cc1nn(C)c(Cl)c1/C=C/C(=O)O 156 to 158 °C

----------
Entries and their melting point

Quick one: melting point for O=C1CCc2c1ccc(Cl)c2Cl ? 82 to 84 °C

Note, next up: NC(=O)Nc1ccc([N+](=O)[O-])cc1 224 to 226 °C

Further cases:
Quick one: melting point for NC(=O)N1CCC(C(=O)O)CC1 ? 193 to 195 °C

Note, next up: Cc1ncccc1C(=O)O 231 to 232 °C
